Source: the supplement of paper PMC10567573

B1: CDC34 (parent)
chain: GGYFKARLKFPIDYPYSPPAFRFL

Variants of: B1
Experiment summary: protein stability index of a GFP-peptide fusion (GPS, HEK-293T) (PSI 1-6); higher = more stable;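 also: lentivirally expressed fusions sorted by FACS into six bins by GFP to DsRed ratio, PSI derived from sequencing read proportions per bin multiplied by bin number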
Experimental parameters: c terminus: a fixed tail appended
Label condition met when protein stability index is at or above 2; anything below gets condition not met.

Threshold query (protein stability index >= 2) on GGYFKARLAFPIDYPYSPPAFRFL [K9A]
condition met

Threshold query (protein stability index >= 2) on GGYFKARLKFPILYPYSPPAFRFL [D13L]
condition met

Threshold query (protein stability index >= 2) on GGYFKARLKFPIDYPLSPPAFRFL [Y16L]
condition met

Threshold query (protein stability index >= 2) on GGYFKARLKFPIDYPYSPPAFRGL [F23G]
condition not met

Threshold query (protein stability index >= 2) on GGYFKARLKFPIDYPGSPPAFRFL [Y16G]
condition met
